Target: ATP-dependent translocase ABCB1 (Homo sapiens, UniProt P08183)
Sequence (P08183 whole entry): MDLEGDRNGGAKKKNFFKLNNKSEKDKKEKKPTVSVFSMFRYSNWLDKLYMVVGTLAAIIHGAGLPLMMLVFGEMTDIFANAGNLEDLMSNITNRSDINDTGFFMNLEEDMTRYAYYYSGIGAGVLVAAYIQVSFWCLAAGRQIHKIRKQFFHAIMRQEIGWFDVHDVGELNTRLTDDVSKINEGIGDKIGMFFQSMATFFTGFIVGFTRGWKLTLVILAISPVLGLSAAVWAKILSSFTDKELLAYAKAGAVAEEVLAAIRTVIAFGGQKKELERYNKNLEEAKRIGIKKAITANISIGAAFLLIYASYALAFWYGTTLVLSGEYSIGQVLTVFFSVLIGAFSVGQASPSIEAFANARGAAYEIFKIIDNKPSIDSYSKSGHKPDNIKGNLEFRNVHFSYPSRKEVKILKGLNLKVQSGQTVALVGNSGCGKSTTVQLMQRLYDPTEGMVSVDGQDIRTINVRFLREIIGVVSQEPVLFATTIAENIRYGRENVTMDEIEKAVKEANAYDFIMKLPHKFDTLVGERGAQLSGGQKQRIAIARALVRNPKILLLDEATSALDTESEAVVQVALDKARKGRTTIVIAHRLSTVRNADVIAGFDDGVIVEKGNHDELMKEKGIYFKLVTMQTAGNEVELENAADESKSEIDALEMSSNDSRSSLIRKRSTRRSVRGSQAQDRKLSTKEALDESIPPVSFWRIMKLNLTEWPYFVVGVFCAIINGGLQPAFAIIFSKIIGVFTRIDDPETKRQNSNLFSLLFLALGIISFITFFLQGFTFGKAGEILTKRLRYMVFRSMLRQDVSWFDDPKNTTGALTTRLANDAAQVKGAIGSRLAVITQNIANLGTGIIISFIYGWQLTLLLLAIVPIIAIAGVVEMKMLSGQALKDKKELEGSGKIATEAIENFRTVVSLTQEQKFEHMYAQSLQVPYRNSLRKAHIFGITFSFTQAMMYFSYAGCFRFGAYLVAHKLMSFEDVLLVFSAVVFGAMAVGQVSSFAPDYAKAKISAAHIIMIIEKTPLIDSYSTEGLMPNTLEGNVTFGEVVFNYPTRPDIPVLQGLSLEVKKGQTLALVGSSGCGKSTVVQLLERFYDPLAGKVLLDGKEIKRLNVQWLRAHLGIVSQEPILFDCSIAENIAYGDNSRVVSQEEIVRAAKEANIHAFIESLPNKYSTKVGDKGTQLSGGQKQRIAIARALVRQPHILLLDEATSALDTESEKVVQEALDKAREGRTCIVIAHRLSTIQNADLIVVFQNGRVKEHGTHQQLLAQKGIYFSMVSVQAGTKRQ
Test: TP_TRANSPORTER: ATP hydrolysis in MDR1-expressing Sf9 cells
Type: functional
assay-metric: Activity

INSERT INTO measurements (molecule, assay_metric, observed) VALUES
  ('COc1cccc2c1C(=O)c1c(O)c3c(c(O)c1C2=O)C[C@@](O)(C(C)=O)C[C@@H]3O[C@H]1C[C@H](N)[C@H](O)[C@H](C)O1 [DAUNORUBICIN]', 'Activity', 'is not a substrate [-]'),
  ('COc1cc(Cc2cnc(N)nc2N)cc(OC)c1OC [TRIMETHOPRIM]', 'Activity', 'substrate [+]'),
  ('CCC1=C[C@@H]2CN(C1)Cc1c([nH]c3ccccc13)[C@@](C(=O)OC)(c1cc3c(cc1OC)N(C)[C@H]1[C@@](O)(C(=O)OC)[C@H](OC(C)=O)[C@]4(CC)C=CCN5CC[C@]31[C@@H]54)C2 [VINORELBINE]', 'Activity', 'is not a substrate [-]'),
  ('COC(=O)C1=C(C)NC(C)=C(C(=O)OC)C1c1ccccc1[N+](=O)[O-] [NIFEDIPINE]', 'Activity', 'substrate [+]'),
  ('CN(C)C(=O)Oc1cccc([N+](C)(C)C)c1.[Br-] [NEOSTIGMINE BROMIDE]', 'Activity', 'is not a substrate [-]');

Query block: Look up Activity with ATP-dependent translocase ABCB1 (Homo sapiens, UniProt P08183) for this molecule: Cc1ncc2n1-c1ccc(Cl)cc1C(c1ccccc1F)=NC2 [MIDAZOLAM]
Result block: substrate [+]

Query block: Form: Entry = CC(=O)O[C@H]1C(=O)[C@@]2(C)[C@H]([C@H](OC(=O)c3ccccc3)[C@]3(O)C[C@H](OC(=O)[C@H](O)[C@@H](NC(=O)c4ccccc4)c4ccccc4)C(C)=C1C3(C)C)[C@]1(OC(C)=O)CO[C@@H]1C[C@@H]2O [PACLITAXEL] | System = ATP-dependent translocase ABCB1 (Homo sapiens, UniProt P08183) | Activity = ____
Result block: substrate [+]

---

Answer each item with its documented Papp B→A.
Biological target: ATP-dependent translocase ABCB1 (MDR1) (Homo sapiens)
Assay: in vitro
Conditions: dog, MDCK-MDR1, Papp
Description: Apparent permeability (Papp) from basolateral to apical side determined in MDR1-MDCKII cells
Please state the figure in ×10⁻⁶ cm/s; there is no need to write the unit.

Query block: What value of measured Papp B→A is listed for "CC[C@H]1C(=O)Nc2ccc(F)cc2N1C(=O)OC(C)C" ?
Result block: 72.6

Query block: Give its Papp B→A value. Item: "CC(=O)O[C@H]1C(=O)[C@@]2(C)[C@H]([C@H](OC(=O)c3ccccc3)[C@]3(O)C[C@H](OC(=O)[C@H](O)[C@@H](NC(=O)c4ccccc4)c4ccccc4)C(C)=C1C3(C)C)[C@]1(OC(C)=O)CO[C@@H]1C[C@@H]2O"
Result block: 13.5

Query block: Given the entry "CNS(=O)(=O)Cc1ccc2[nH]cc(CCN(C)C)c2c1" , report its measured Papp B→A.
Result block: 1.3

Query block: Entry "Cc1c(O)cccc1C(=O)N[C@@H](CSc1ccccc1)[C@H](O)CN1C[C@H]2CCCC[C@H]2C[C@H]1C(=O)NC(C)(C)C" has what Papp B→A?
Result block: 33.8

Query block: Entry CN(Cc1cnc2nc(N)nc(N)c2n1)c1ccc(C(=O)N[C@@H](CCC(=O)O)C(=O)O)cc1 [METHOTREXATE] : reported Papp B→A = ?
Result block: 0.706

Query block: Entry under review: "COc1cccc2c1C(=O)c1c(O)c3c(c(O)c1C2=O)C[C@@](O)(C(=O)CO)C[C@@H]3O[C@H]1C[C@H](N)[C@H](O)[C@H](C)O1" . Reported Papp B→A?
Result block: 0.973

Query block: Look up Papp B→A: COc1cc([C@@H]2c3cc4c(cc3[C@@H](O[C@@H]3O[C@@H]5CO[C@@H](C)O[C@H]5[C@H](O)[C@H]3O)[C@H]3COC(=O)[C@H]23)OCO4)cc(OC)c1O [ETOPOSIDE]
Result block: 6.06

Query block: Fill in the blank: the reported Papp B→A of "Nc1nc(N)c2nc(-c3ccccc3)c(N)nc2n1" is ____.
Result block: 18.4

Query block: // query Papp B→A value for entry "CN1CCC[C@@H]1Cc1c[nH]c2ccc(CCS(=O)(=O)c3ccccc3)cc12"
Result block: 57.8

Query block: Fill in the blank: the reported Papp B→A of "CC[C@]1(O)C[C@H]2CN(CCc3c([nH]c4ccccc34)[C@@](C(=O)OC)(c3cc4c(cc3OC)N(C=O)[C@H]3[C@@](O)(C(=O)OC)[C@H](OC(C)=O)[C@]5(CC)C=CCN6CC[C@]43[C@@H]65)C2)C1" is ____.
Result block: 1.49

Query block: Item under review: "COc1cc2nc(N3CCN(C(=O)c4ccco4)CC3)nc(N)c2cc1OC" . Reported Papp B→A?
Result block: 66.1

Query block: Any idea what its Papp B→A is? The compound is "CN(C)CCCN1c2ccccc2Sc2ccc(Cl)cc21"
Result block: 47.7

---

For each entry below, report its Papp B→A value.
Molecular target: ATP-dependent translocase ABCB1 (MDR1) (Homo sapiens, UniProt P08183)
Assay: in vitro
Settings: dog, MDCK-MDR1, Papp
Starred links: 1 amine or outer side, 2 acyl side, 3 side chain; linkers in the order of their positions; H or OH if unused. Positions of bridges follow the written chain, without caps; N, C: chain ends. Non-standard residues stand in square brackets, D forms with d. Residues, ends and D or L forms follow the SMILES beside them. Chains are numbered I, II in the order given. Actinocin(9to1) = Cc1c2oc3c(C)ccc(C(=O)[*:1])c3nc-2c(C(=O)[*:2])c(N)c1=O; NMeV = CN[C@H](C(=O)O)C(C)C; Sar = CNCC(=O)O
Numeric answer only, unit ×10⁻⁶ cm/s assumed.

Query block: GET /values?readout=Papp B→A&item= Cc1c2oc3c(C)ccc(C(=O)N[C@@H]4C(=O)N[C@H](C(C)C)C(=O)N5CCC[C@H]5C(=O)N(C)CC(=O)N(C)[C@@H](C(C)C)C(=O)O[C@@H]4C)c3nc-2c(C(=O)N[C@@H]2C(=O)N[C@H](C(C)C)C(=O)N3CCC[C@H]3C(=O)N(C)CC(=O)N(C)[C@@H](C(C)C)C(=O)O[C@@H]2C)c(N)c1=O [DACTINOMYCIN] (I: T[dV]P[Sar][NMeV] / II: T[dV]P[Sar][NMeV]; ester I:1-I:C, II:1-II:C; linker I:N-II:N via Actinocin(9to1))
Result block: 1.6

Query block: Consider the molecule COc1ccc([C@@H]2Sc3ccccc3N(CCN(C)C)C(=O)[C@@H]2OC(C)=O)cc1 [DILTIAZEM] and give its measured Papp B→A.
Result block: 67.6

Query block: I have this molecule here, CC[C@]1(O)C[C@@H]2CN(CCc3c([nH]c4ccccc34)[C@@](C(=O)OC)(c3cc4c(cc3OC)N(C)[C@H]3[C@@](O)(C(=O)OC)[C@H](OC(C)=O)[C@]5(CC)C=CCN6CC[C@]43[C@@H]65)C2)C1 [VINBLASTINE] , and I need its recorded Papp B→A.
Result block: 23.2

Query block: Recorded Papp B→A for COC(=O)[C@H]1[C@H]2C[C@@H]3c4[nH]c5cc(OC)ccc5c4CCN3C[C@H]2C[C@@H](OC(=O)c2cc(OC)c(OC)c(OC)c2)[C@@H]1OC [RESERPINE] , please?
Result block: 25.3

---

Target: ATP-dependent translocase ABCB1 (MDR1) (Homo sapiens)
Experiment: in vitro
Conditions: dog, MDCK-MDR1, Ratio_Papp
Description: Ratio of apparent permeability from basolateral to apical side over apical to basolateral side determined in MDR1-MDCKII cells
assay-metric: efflux ratio
Answer as a number with no unit attached.

Query block: Value lookup for efflux ratio; key = "COc1ccc(C[C@H](N)C(=O)N[C@H]2[C@@H](O)[C@H](n3cnc4c(N(C)C)ncnc43)O[C@@H]2CO)cc1"
Result block: 3.1

Query block: I have this compound here, CCOC(=O)C1=C(C)NC(C)=C(C(=O)OC)C1c1cccc([N+](=O)[O-])c1 (centres undefined) , and I need its recorded efflux ratio.
Result block: 0.8

Query block: Which efflux ratio is listed for CC(=O)Nc1ccc(OCC(O)CNC(C)C)cc1 (centres undefined) ?
Result block: 1.32

Query block: Item CCN(CC)CCCC(C)Nc1ccnc2cc(Cl)ccc12 (centres undefined) has what recorded efflux ratio?
Result block: 3.83

---

Biological target: ATP-dependent translocase ABCB1 (Homo sapiens)
Experiment: TP_TRANSPORTER: ATP hydrolysis in MDR1-expressing Sf9 cells
Assay type: functional
Starred links: 1 amine or outer side, 2 acyl side, 3 side chain; linkers in the order of their positions; H or OH if unused. Positions of bridges follow the written chain, without caps; N, C: chain ends. Non-standard residues stand in square brackets, D forms with d. Residues, ends and D or L forms follow the SMILES beside them. Chains are numbered I, II in the order given. Actinocin(9to1) = Cc1c2oc3c(C)ccc(C(=O)[*:1])c3nc-2c(C(=O)[*:2])c(N)c1=O; NMeV = CN[C@H](C(=O)O)C(C)C; Sar = CNCC(=O)O
assay-metric: Activity

Worked examples, 6 compounds total:
INSERT INTO measurements (compound, system_under_test, observed) VALUES
  ('CCOC(=O)C1=C(C)NC(C)=C(C(=O)OC)C1c1cccc([N+](=O)[O-])c1 (stereo unspecified)', 'ATP-dependent translocase ABCB1 (Homo sapiens)', 'substrate [+]'),
  ('COc1ccc(C[C@H](N)C(=O)N[C@H]2[C@@H](O)[C@H](n3cnc4c(N(C)C)ncnc43)O[C@@H]2CO)cc1', 'ATP-dependent translocase ABCB1 (Homo sapiens)', 'is not a substrate [-]'),
  ('COc1cc2c(c(OC)c1OC)-c1ccc(OC)c(=O)cc1[C@@H](NC(C)=O)CC2', 'ATP-dependent translocase ABCB1 (Homo sapiens)', 'is not a substrate [-]'),
  ('CC[C@H]1OC(=O)[C@H](C)[C@@H](O[C@H]2C[C@@](C)(OC)[C@@H](O)[C@H](C)O2)[C@H](C)[C@@H](O[C@@H]2O[C@H](C)C[C@H](N(C)C)[C@H]2O)[C@](C)(OC)C[C@@H](C)C(=O)[C@H](C)[C@@H](O)[C@]1(C)O', 'ATP-dependent translocase ABCB1 (Homo sapiens)', 'substrate [+]'),
  ('CC[C@]1(O)C[C@H]2CN(CCc3c([nH]c4ccccc34)[C@@](C(=O)OC)(c3cc4c(cc3OC)N(C=O)[C@H]3[C@@](O)(C(=O)OC)[C@H](OC(C)=O)[C@]5(CC)C=CCN6CC[C@]43[C@@H]65)C2)C1', 'ATP-dependent translocase ABCB1 (Homo sapiens)', 'is not a substrate [-]'),
  ('CC(C)(C)NC(=O)[C@@H]1CN(Cc2cccnc2)CCN1C[C@@H](O)C[C@@H](Cc1ccccc1)C(=O)N[C@H]1c2ccccc2C[C@H]1O.O', 'ATP-dependent translocase ABCB1 (Homo sapiens)', 'substrate [+]');

Query block: # Activity lookup, item "COC(=O)Nc1nc2ccc(C(=O)c3ccccc3)cc2[nH]1"
Result block: substrate [+]

Query block: Given the entry Cc1c2oc3c(C)ccc(C(=O)N[C@@H]4C(=O)N[C@H](C(C)C)C(=O)N5CCC[C@H]5C(=O)N(C)CC(=O)N(C)[C@@H](C(C)C)C(=O)O[C@@H]4C)c3nc-2c(C(=O)N[C@@H]2C(=O)N[C@H](C(C)C)C(=O)N3CCC[C@H]3C(=O)N(C)CC(=O)N(C)[C@@H](C(C)C)C(=O)O[C@@H]2C)c(N)c1=O [DACTINOMYCIN] (I: T[dV]P[Sar][NMeV] / II: T[dV]P[Sar][NMeV]; ester I:1-I:C, II:1-II:C; linker I:N-II:N via Actinocin(9to1)) , report its measured Activity.
Result block: is not a substrate [-]

Query block: Bench note: what Activity did CCN(CC)CCCC(C)Nc1ccnc2cc(Cl)ccc12 (stereo unspecified) show?
Result block: is not a substrate [-]

Query block: Can you look up the measured Activity of COC(=O)C1=C(C)NC(C)=C(C(=O)OCCN(C)Cc2ccccc2)C1c1cccc([N+](=O)[O-])c1 (stereo unspecified) for me?
Result block: substrate [+]

Query block: Quick one: Activity for "CN1CCC[C@@H]1Cc1c[nH]c2ccc(CCS(=O)(=O)c3ccccc3)cc12" ?
Result block: substrate [+]

Taken from ChEMBL document CHEMBL1908284.
